- experimental_system: UniProtKB Q29010
- Sequence (Q29010 21-427): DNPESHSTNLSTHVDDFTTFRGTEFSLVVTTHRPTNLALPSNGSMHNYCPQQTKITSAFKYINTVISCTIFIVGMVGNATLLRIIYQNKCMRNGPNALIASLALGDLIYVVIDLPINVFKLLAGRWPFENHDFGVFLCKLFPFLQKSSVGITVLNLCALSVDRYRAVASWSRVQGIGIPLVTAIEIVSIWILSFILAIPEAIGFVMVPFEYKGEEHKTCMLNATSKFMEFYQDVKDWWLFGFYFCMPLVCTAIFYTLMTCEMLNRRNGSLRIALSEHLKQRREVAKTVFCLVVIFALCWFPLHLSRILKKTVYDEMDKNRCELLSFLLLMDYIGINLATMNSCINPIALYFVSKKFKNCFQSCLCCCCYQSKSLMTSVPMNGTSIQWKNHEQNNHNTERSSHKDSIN
measurement_type: IC50 (µM)
Please give a number only; it is taken to be in µM.

With UniProtKB Q29010 as the test system, provide measured IC50 for this compound: CCC[C@@H](O)[C@H](C(=O)N[C@@H](Cc1c[nH]c2ccccc12)C(=O)O)c1ccc2c(c1)OCO2 (mixture of isomers) 0.04
